- assay.conditions: 308.15 K; 101 kPa; Liquid
Each entry below lists one item and its recorded viscosity value.
Answer with a number only, understood to be in mPa·s.

Would you please look over these solved cases?
CC(C)O
1.553
C[S+](C)[O-] [dimethyl sulfoxide]
1.67
CCCO
1.534

In: Please look up its viscosity: `CO`
Out: 0.4843

In: So what's the measured viscosity for this one? `CCO`
Out: 0.9732

###

- assay.conditions: 308.15 K; 101 kPa; Liquid
measured.metric: mass density (kg/m3)
Write the number in kg/m3 without appending the unit.

Some solved cases for reference:
CCCO
791.1
CC(C)O
772.6
CO
778.2
C[S+](C)[O-] [dimethyl sulfoxide]
1084.7

In: Find the recorded mass density belonging to `CCO` and report it.
Out: 779
